- measured_target: Histone deacetylase 3 (Homo sapiens, UniProt O15379)
- Sequence (O15379 whole entry): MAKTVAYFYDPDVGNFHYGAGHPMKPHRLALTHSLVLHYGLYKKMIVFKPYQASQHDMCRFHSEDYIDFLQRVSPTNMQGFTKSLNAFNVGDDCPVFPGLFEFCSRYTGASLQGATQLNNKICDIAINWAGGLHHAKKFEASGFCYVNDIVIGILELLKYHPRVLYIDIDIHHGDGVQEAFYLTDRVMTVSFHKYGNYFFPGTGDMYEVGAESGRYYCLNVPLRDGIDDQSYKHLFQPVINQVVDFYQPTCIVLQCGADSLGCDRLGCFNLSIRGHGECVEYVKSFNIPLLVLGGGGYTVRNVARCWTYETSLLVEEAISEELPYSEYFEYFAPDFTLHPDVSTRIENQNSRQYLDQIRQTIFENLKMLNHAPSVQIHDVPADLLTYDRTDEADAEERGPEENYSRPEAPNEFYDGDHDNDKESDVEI
readout_type: IC50 (nM)
Enter your answer as a number in nM; do not include the unit.

State measured IC50 of the compound COC(=O)c1ccc2ccccc2c1OCCCCCCCC(=O)NO with Histone deacetylase 3 (Homo sapiens, UniProt O15379). 1000

====

- measured_target: Histone deacetylase 2 (Homo sapiens, UniProt Q92769)
- Sequence (Q92769 whole entry): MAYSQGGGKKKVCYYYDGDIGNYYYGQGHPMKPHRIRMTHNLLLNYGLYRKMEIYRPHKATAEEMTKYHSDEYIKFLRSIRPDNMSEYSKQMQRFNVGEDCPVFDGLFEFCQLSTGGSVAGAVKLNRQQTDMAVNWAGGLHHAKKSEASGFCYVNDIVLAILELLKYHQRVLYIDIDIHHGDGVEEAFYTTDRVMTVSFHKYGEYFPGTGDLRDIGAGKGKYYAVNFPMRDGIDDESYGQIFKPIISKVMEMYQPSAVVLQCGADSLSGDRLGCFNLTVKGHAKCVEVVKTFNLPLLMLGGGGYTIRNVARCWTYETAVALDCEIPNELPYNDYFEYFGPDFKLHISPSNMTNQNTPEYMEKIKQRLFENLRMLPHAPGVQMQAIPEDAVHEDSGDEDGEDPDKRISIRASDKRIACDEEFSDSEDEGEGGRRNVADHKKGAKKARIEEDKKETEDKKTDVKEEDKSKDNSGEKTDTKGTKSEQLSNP
- test_method_notes: Inhibition of human recombinant HDAC2 using fluorogenic HDAC substrate measured after 15 mins by fluorimetry assay
readout_type: IC50 (µM)
Enter your answer as a number in µM; do not include the unit.

Determine from records and report IC50 for COC(=O)c1ccc2ccccc2c1OCCCCCCCC(=O)NO 3.4

====

- measured_target: Protein deacetylase HDAC6 (Homo sapiens, UniProt Q9UBN7)
- Sequence (Q9UBN7 whole entry): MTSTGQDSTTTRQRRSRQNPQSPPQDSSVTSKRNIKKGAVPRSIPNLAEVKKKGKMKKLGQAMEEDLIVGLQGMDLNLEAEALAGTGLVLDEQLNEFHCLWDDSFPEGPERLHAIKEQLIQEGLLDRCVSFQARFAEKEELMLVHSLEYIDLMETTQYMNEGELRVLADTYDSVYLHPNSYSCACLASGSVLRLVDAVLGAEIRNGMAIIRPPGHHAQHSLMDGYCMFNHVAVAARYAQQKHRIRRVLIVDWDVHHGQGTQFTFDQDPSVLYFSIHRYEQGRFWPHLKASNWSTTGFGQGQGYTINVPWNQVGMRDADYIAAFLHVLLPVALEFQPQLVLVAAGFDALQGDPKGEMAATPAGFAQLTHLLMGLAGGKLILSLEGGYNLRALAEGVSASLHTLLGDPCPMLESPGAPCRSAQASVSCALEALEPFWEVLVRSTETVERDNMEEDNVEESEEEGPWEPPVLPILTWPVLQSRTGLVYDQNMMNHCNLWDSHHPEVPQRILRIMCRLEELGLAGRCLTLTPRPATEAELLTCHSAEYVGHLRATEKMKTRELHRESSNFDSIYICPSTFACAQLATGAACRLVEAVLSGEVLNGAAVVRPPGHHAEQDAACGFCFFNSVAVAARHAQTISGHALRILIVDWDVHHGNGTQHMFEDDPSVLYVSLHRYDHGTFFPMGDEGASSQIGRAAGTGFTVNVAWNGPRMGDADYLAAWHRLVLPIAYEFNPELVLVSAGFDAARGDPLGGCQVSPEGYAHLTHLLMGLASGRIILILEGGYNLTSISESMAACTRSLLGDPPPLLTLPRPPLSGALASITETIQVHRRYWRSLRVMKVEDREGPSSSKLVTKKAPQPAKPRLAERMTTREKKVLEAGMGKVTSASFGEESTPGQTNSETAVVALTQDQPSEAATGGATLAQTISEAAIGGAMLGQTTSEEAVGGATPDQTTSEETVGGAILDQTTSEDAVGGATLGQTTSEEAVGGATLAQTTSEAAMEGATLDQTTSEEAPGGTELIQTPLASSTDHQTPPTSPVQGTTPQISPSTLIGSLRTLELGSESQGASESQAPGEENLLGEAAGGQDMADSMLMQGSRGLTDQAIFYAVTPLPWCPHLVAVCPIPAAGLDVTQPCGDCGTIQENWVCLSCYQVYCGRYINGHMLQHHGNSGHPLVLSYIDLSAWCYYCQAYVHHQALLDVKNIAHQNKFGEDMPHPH
- test_method_notes: Inhibition of human recombinant HDAC6 using fluorogenic HDAC substrate measured after 30 mins by fluorimetry assay
readout_type: pIC50
Note on units: pIC50 is unitless, being -log10 of a concentration expressed in mol/L.

Determine from records and report pIC50 for COC(=O)c1ccc2ccccc2c1OCCCCCCCC(=O)NO 7.02

The reported numbers originate from ChEMBL document CHEMBL4396900.
